Cited source for all entries: ChEMBL document CHEMBL3045095

tested on: HeLa; assay: Cytotoxicity against Homo sapiens (human) HeLa cells assessed as cell death at 12.5 uM after 48 hr by MTT assay; format: functional
Returns one of y or n; y when Activity is >= 30%.

chemicalString	qualitativeLabel
CS(=O)(=O)c1ccc(Cc2n[nH]c(=S)n2/N=C/c2ccc(F)cc2)cc1	n

Problem: Reported Activity reaches at least 30% for `CS(=O)(=O)c1ccc(Cc2n[nH]c(=S)n2/N=C/c2ccc(Cl)cc2)cc1` ?
Solution: y

Problem: Note, next up: `CS(=O)(=O)c1ccc(Cc2n[nH]c(=S)n2/N=C/c2cccs2)cc1`
Solution: n

Problem: Note, next up: `CS(=O)(=O)c1ccc(Cc2n[nH]c(=S)n2/N=C/c2cccnc2)cc1`
Solution: n

Problem: Note, next up: `CS(=O)(=O)c1ccc(Cc2n[nH]c(=S)n2/N=C/c2ccccc2Cl)cc1`
Solution: y

Problem: Note, next up: `CSc1ccc(/C=N/n2c(Cc3ccc(S(C)(=O)=O)cc3)n[nH]c2=S)cc1`
Solution: n

Problem: Note, next up: `COc1ccc2cc(/C=N/n3c(Cc4ccc(S(C)(=O)=O)cc4)n[nH]c3=S)ccc2c1`
Solution: y

Problem: Note, next up: `CS(=O)(=O)c1ccc(Cc2n[nH]c(=S)n2/N=C/c2c(F)cccc2Cl)cc1`
Solution: y

Problem: Note, next up: `CS(=O)(=O)c1ccc(Cc2n[nH]c(=S)n2/N=C/c2ccccc2F)cc1`
Solution: n
